# Test system: SF-539
# protocol.text: NCI tumour cell line growth inhibition, 48 h
The source made the active and inactive calls. No stated cut-off is given here; in the data, active = GI50 up to about 1.1 µM and inactive = higher.
Outcomes you can answer with include only these: true (active), false (inactive)

Observe how each entry below is paired with its result.
>  <molecule>
CC1C(c2ccccc2O)c2cc3c(cc2OC1N1CCCC1)OCO3 (stereo unspecified)

>  <label.class>
false

$$$$
>  <molecule>
CCN(CC)CCOC(=O)c1ccc(N)cc1.CCOC(=O)Nc1ccc(S(=O)(=O)OC)cc1.CCOC(=O)Nc1ccc(S(=O)(=O)OC)cc1.Nc1ccc(C(=O)O)c(O)c1

>  <label.class>
false

$$$$
>  <molecule>
C[S+](C)CC(=O)c1ccc2c(c1)Sc1ccccc1O2

>  <label.class>
true

$$$$
>  <molecule>
Cc1ccc(S(=O)(=O)N2CCCCN(S(=O)(=O)c3ccc(C)cc3)Cc3ccccc3OCCOCCOc3c4cccc3Cc3cccc5c3OCCOCCOc3ccccc3CN(S(=O)(=O)c3ccc(C)cc3)CCCN(S(=O)(=O)c3ccc(C)cc3)Cc3ccccc3OCCOCCOc3c(cccc3C4)Cc3cccc(c3OCCOCCOc3ccccc3C2)C5)cc1

>  <label.class>
false

$$$$
>  <molecule>
N#Cc1ccc(-c2nc3c(N)ncnc3o2)cc1

>  <label.class>
false

$$$$
>  <molecule>
CCn1c(-c2ccccc2)cs/c1=N\C(P(=O)(O)O)P(=O)(O)O

>  <label.class>
false

$$$$
>  <molecule>
CC1OC(OC2C(OC(=O)[C@]34CCC(C)(C)CC3C3=CCC5[C@@]6(C)C[C@H](O)[C@H](OC7OC(CO)C(O)C(O)C7N)[C@@](C)(C(=O)O)C6CC[C@@]5(C)C3(C)CC4)OCC(O)C2O)C(O)C(O)C1OC1OCC(O)C(O)C1O (stereo partly specified)

>  <label.class>
false

$$$$
>  <molecule>
C1CSCCSCCSCCSCCS1

>  <label.class>
false

$$$$

Record lookup: outcome of this test for CC(=O)NC(CCCN)C(=O)NCc1ccccc1 (stereo unspecified) ?
false

Repeat with "Cc1ccc2c(c1)c1ccc3c(c1n2C)C(=O)C=CC3=O"
false

Quick one: Nc1ccc(COC(O)CN2CCCCC2)cc1[N+](=O)[O-] (stereo unspecified)
false

What about this molecule? "O=S(=O)(O)c1cc2ccc1/C=C\c1ccc(cc1S(=O)(=O)O)/N=N\c1ccc(c(S(=O)(=O)O)c1)/C=C\c1ccc(cc1S(=O)(=O)O)/N=N\2"
false

----------
# Tested on: SNB-78
# protocol.text: NCI tumour cell line growth inhibition, 48 h
The source made the active and inactive calls. No stated cut-off is given here; in the data, active = GI50 up to about 1.1 µM and inactive = higher.
Assignment: determine reported GI50 for the given compounds.

>  <compound>
O=C(O)C1CCCCN1C(=O)c1ccccc1 (stereo unspecified)

>  <assay.system>
SNB-78

>  <GI50>
> 100 µM (inactive)

$$$$
>  <compound>
O=C(/C=C/c1cccc([N+](=O)[O-])c1)c1ccc([N+](=O)[O-])cc1

>  <assay.system>
SNB-78

>  <GI50>
> 100 µM (inactive)

$$$$
>  <compound>
COc1cccc(NC(=O)C(C)(C)C)c1SSc1c(NC(=O)C(C)(C)C)cccc1OC

>  <assay.system>
SNB-78

>  <GI50>
22.3 µM (inactive)

$$$$
>  <compound>
Cc1ccccc1OCC(COC(=O)Nc1ccccc1)OC(=O)Nc1ccccc1 (stereo unspecified)

>  <assay.system>
SNB-78

>  <GI50>
22.2 µM (inactive)

$$$$
>  <compound>
CN(C)CCNC(=O)c1cccc2ccc(-c3cccnc3)nc12

>  <assay.system>
SNB-78

>  <GI50>
7.11 µM (inactive)

$$$$
>  <compound>
CC1=C[C@]2(CC(C)C3C(CC4(C)C5CCC6C(C)(C)C(=O)CC[C@@]67C[C@@]57CC[C@]34C)O2)OC1=O (stereo partly specified)

>  <assay.system>
SNB-78

>  <GI50>
23.2 µM (inactive)

$$$$

Batch: GI50 for all items listed.
1. CC(C)N(C(=O)C1(C)CC1)C(C)C
2. Cc1ccc([N+](=O)[O-])cc1NC(=O)c1cccc([N+](=O)[O-])c1O
3. CC/C(CC(=O)CCC(=O)Nc1c(C)cccc1C)=N\NC(=O)NN

> 100 µM (inactive)
20.8 µM (inactive)
> 100 µM (inactive)

State the recorded GI50 for every item in the following list.
1. CSc1n/c(=N\c2ccccc2)sn1-c1ccccc1
2. O=C(COc1ccc(Cl)cc1)N1N=C(c2ccc(Cl)cc2)CC1(O)c1ccccc1 (stereo unspecified)

["20.7 µM (inactive)", "> 38.5 µM (inactive)"]

----------
# Tested on: CCRF-CEM
# protocol.text: NCI tumour cell line growth inhibition, 48 h
The source made the active and inactive calls. Cut-off read from the data, not from the text of the source: active = GI50 up to about 1.1 µM and inactive = higher.
Give GI50 for every item shown.

>  <compound>
COc1ccc2c(c1)c(=O)c1c(NCCCN(C)C)ccc3ncn2c31

>  <measured>
1.61 µM (inactive)

$$$$
>  <compound>
CC12CCC(C(Br)(Br)C1=O)C2(C)C (stereo not given)

>  <measured>
< 0.0166 µM (active)

$$$$

Please state, for each entry, its recorded GI50.
1. CCOC(=O)/C(O)=C/c1cc(OC)cc(=O)o1
2. CCOC(C)OC1CC(n2cc(C)c(=O)[nH]c2=O)OC1CO (stereo not given)
3. O=C1N2Cc3c4ccc5c3CN3C(=O)N6Cc7c(ccc(c7CN1C6(c1ccccc1)C23c1ccccc1)OCCOCCOc1cc(Br)c(Br)cc1OCCOCCO4)OCCOCCOc1cc(Br)c(Br)cc1OCCOCCO5 (stereo not given)

["> 100 µM (inactive)", "82.6 µM (inactive)", "> 100 µM (inactive)"]

----------
# System: 786-0
# protocol.text: NCI tumour cell line growth inhibition, 48 h
The source made the active and inactive calls. Rule as the data show it: active = GI50 up to about 1.1 µM and inactive = higher.
Exercise: for every item that follows, state its recorded GI50.

As a guide, the following entries are already answered.
>  <compound>
COc1ccc(NC(=S)Nc2cc(C)cc(C)n2)cc1

>  <GI50>
> 100 µM (inactive)

$$$$
>  <compound>
Cc1cc(C)c(S(=O)(=O)N(CCCN)OCCON(CCCN)S(=O)(=O)c2c(C)cc(C)cc2C)c(C)c1

>  <GI50>
3.93 µM (inactive)

$$$$

Please go through the list and note GI50 for each compound.
1. [N-]=[N+]=C(C(=O)CN1CCCC1=O)S(=O)(=O)c1ccccc1
2. Nc1c2c(nc3ccccc13)CCCCCC2
3. CC(C)(C)OC(=O)N1C(=O)OC[C@@H]2C=C[C@@H]21
4. O=C(/C=C/c1ccccc1)Oc1cccc(Br)c1
5. O=C1C2=C(c3ccccc31)C(c1cccc(Cl)c1)NC(S)=N2 (centres undefined)

["> 100 µM (inactive)", "16.4 µM (inactive)", "> 100 µM (inactive)", "> 100 µM (inactive)", "> 100 µM (inactive)"]

Could I get GI50 for every one of these entries?
1. OC(c1cc(-c2ccccc2)nc2c1ccc1ccccc12)C1CCCCN1 (centres undefined)
2. C=CCCC1CCCCC/C1=N\N(C)C (centres undefined)

1. 1.64 µM (inactive)
2. > 100 µM (inactive)

----------
# Test system: COLO 205
# protocol.text: NCI tumour cell line growth inhibition, 48 h
Activity calls are given as the source filed them. Rule as the data show it: active = GI50 up to about 1.1 µM and inactive = higher.
metric: GI50

>  <compound>
Cc1nnc(N)nc1/C=C\c1cccs1

>  <assay.system>
COLO 205

>  <metric>
GI50

>  <measured>
27.7 µM (inactive)

$$$$
>  <compound>
C=CCOc1ccccc1/N=N/C(C#N)=N\Nc1ccccc1OCC=C

>  <assay.system>
COLO 205

>  <metric>
GI50

>  <measured>
> 100 µM (inactive)

$$$$
>  <compound>
O=C(O)c1cc(=O)c2c([nH]c3ccccc32)s1

>  <assay.system>
COLO 205

>  <metric>
GI50

>  <measured>
> 100 µM (inactive)

$$$$

Provide GI50 values for the following items, in order.
1. CCn1c(-c2ccccc2)cs/c1=N\C(P(=O)(O)O)P(=O)(O)O
2. CC1CCCc2c(C#N)c(N)nc(-c3ccc(Cl)cc3)c21 (centres undefined)
3. O=C(O)c1ccc2c(c1)CC1(C2)Cc2cc3c(cc2C1=O)CCC3 (centres undefined)
4. O=c1ccc(=O)n(-c2ccccc2)[nH]1
5. COc1ccc(C2C(C#N)=C(S)N(C3OC(COC(C)=O)C(OC(C)=O)C(OC(C)=O)C3OC(C)=O)C(c3ccccc3)=C2C(C)=O)cc1 (centres undefined)

> 100 µM (inactive)
18.8 µM (inactive)
> 100 µM (inactive)
> 100 µM (inactive)
> 100 µM (inactive)

Requested read-out: GI50. Entry: CC1OC(OC2C(OC(=O)[C@]34CCC(C)(C)CC3C3=CCC5[C@@]6(C)C[C@H](O)[C@H](OC7OC(CO)C(O)C(O)C7N)[C@@](C)(C(=O)O)C6CC[C@@]5(C)C3(C)CC4)OCC(O)C2O)C(O)C(O)C1OC1OCC(O)C(O)C1O (some centres undefined)
> 100 µM (inactive)
